Every entry's value here was drawn from ChEMBL document CHEMBL1137994.

Measured Target: 3-hydroxy-3-methylglutaryl-coenzyme A reductase (Rattus norvegicus)
Assay Comment: Ratio of HMG-CoA reductase to mevalinate
Item-by-item account of Ratio
Reported Endpoint: Ratio

# Molecule, Test Result
data = [
    ("CC[C@H](C)C(=O)O[C@H]1C[C@@H](C)C=C2C=C[C@H](C)[C@H](CC[C@@H]3C[C@@H](O)CC(=O)O3)[C@H]21 [LOVASTATIN]", 2.2),
    ("O=C(O)c1ccc(/C=C/CSSC/C=C/c2ccc(C(=O)O)cc2)cc1", 2.02),
    ("C=CCS[S+]([O-])CC=C (configuration not stated) [ALLICIN]", 2.07),
    ("Nc1ccc(/C=C/CSSC/C=C/c2ccc(N)cc2)cc1", 1.74),
    ("O=[N+]([O-])c1ccc(/C=C/CSSC/C=C/c2ccc([N+](=O)[O-])cc2)cc1", 2.53),
    ("COc1ccc(/C=C/CSSC/C=C/c2ccc(OC)cc2)cc1", 1.68),
    ("C(=C\\c1ccccc1)/CSSC/C=C/c1ccccc1", 1.72),
]
